Data provenance is patent US8574882B2.

# key: entry, value: Relative activity
# Test system: 1,5-AG dehydrogenase (Ver. 0)
# assay_comment: Substrate specificity of parent strain-derived 1,5-AG dehydrogenase
# Assay type: biochemical, Pseudomonas sp. NK-85001
# protocol_conditions: activity for 1,5-AG as 100%; Ver. 0, 40%-saturated ammonium sulfate precipitate fraction
Note: unit % is implicit; provide only the numeric part.

Would you please look over these solved cases?
Form: Entry = OC[C@H]1OC[C@H](O)[C@@H](O)[C@@H]1O [1,5-AG, 1,5-anhydroglucitol] | System = 1,5-AG dehydrogenase (Ver. 0) | Relative activity = ____
100

What would you report for O=C[C@H](O)[C@@H](O)[C@@H](O)[C@H](O)CO [Galactose] ?
0

What would you report for OC[C@@H](O)[C@H](O)[C@@H](O)CO [Xylitol] ?
0

What would you report for O=C[C@H](O)[C@@H](O)[C@H](O)CO [Xylose] ?
0

Continuing:
Form: Entry = OC[C@H]1O[C@H](O[C@H]2[C@H](O)[C@@H](O)C(O)O[C@@H]2CO)[C@H](O)[C@@H](O)[C@@H]1O (mixture of isomers) [Maltose] | System = 1,5-AG dehydrogenase (Ver. 0) | Relative activity = ____
0.2

What would you report for O=C(CO)[C@@H](O)[C@H](O)[C@@H](O)CO [L-sorbose] ?
54
